# System: L. braziliensis intracellular amastigotes (HMOM/COL/88/UA301-EGFP)
# experiment_summary: In vitro activity against L. braziliensis amastigotes in U-937 cells (flow cytometry)
# Format: cell-based, Leishmania braziliensis
# condition_summary: Leishmania braziliensis, U-937, 72 h, intracellular amastigotes of L. braziliensis, 72 h; read-out: Leishmanicidal activity EC50 (median effective concentration)
reported_property: EC50 (µM)
Answers are plain numbers, in µM.

CCCOC(=O)OC1CC(C)CCC1C(C)C (stereo not shown): 31.8
CCCCOC(=O)OC1CC(C)CCC1C(C)C (stereo not shown): 53.3

Give me EC50 for each of these compounds, listed below.
1. CC1CCC(C(C)C)C(OC(=O)OC(C)C)C1 (stereo not shown)
2. CCCCCCCCOC(=O)OC1CC(C)CCC1C(C)C (stereo not shown)

Out:
[43.2, 463]

---

# Tested on: L. braziliensis intracellular amastigotes (HMOM/COL/88/UA301-EGFP)
# experiment_summary: In vitro activity against L. braziliensis amastigotes in U-937 cells (flow cytometry)
# Assay type: cell-based, Leishmania braziliensis
# condition_summary: LC50 U-937 / EC50 L. braziliensis
reported_property: Leishmanicidal activity IS (Index of Selectivity = LC50/EC50)
Numbers only.

COC(=O)OC1CC(C)CCC1C(C)C (centres unmarked): 3.0

For each of the compounds below, state Leishmanicidal activity IS (Index of Selectivity = LC50/EC50).
1. CCCOC(=O)OC1CC(C)CCC1C(C)C (centres unmarked)
2. CCCCOC(=O)OC1CC(C)CCC1C(C)C (centres unmarked)
3. CCCCCCCCOC(=O)OC1CC(C)CCC1C(C)C (centres unmarked)
4. CCCCCCOC(=O)OC1CC(C)CCC1C(C)C (centres unmarked)
5. C[C@@H]1[C@H](O)[C@@H](C)/C=C/C=C/C=C/C=C/C=C/C=C/C=C/[C@H](O[C@@H]2O[C@H](C)[C@@H](O)[C@H](N)[C@@H]2O)C[C@@H]2O[C@](O)(C[C@@H](O)C[C@@H](O)[C@H](O)CC[C@@H](O)C[C@@H](O)CC(=O)O[C@H]1C)C[C@H](O)[C@H]2C(=O)O [AMB, Amphotericin B, reference compound]
6. CC1CCC(C(C)C)C(OC(=O)OC(C)C)C1 (centres unmarked)
7. CCOC(=O)OC1CC(C)CCC1C(C)C (centres unmarked)

Out:
1.8
3.5
0.1
2.6
134.8
3.4
3.6

---

# Test system: P. falciparum (3D7 strain)
# experiment_summary: In vitro antiplasmodial activity (pLDH)
# Assay type: cell-based, Plasmodium falciparum
# condition_summary: LC50 U-937 / EC50 P. falciparum
Exercise: state measured Antiplasmodial activity IS (Index of Selectivity = LC50/EC50) for each of the molecules provided.
Answers are plain numbers.

Observe how each entry below is paired with its result.
CC1CCC(C(C)C)C(OC(=O)OC(C)C)C1 (stereo not drawn) [Compound 4]: 2.4
CCCCCCCCOC(=O)OC1CC(C)CCC1C(C)C (stereo not drawn) [Compound 9]: 0.7
CCCCCCOC(=O)OC1CC(C)CCC1C(C)C (stereo not drawn) [Compound 7]: 0.2
CCCCCCCOC(=O)OC1CC(C)CCC1C(C)C (stereo not drawn) [Compound 8]: 0.7
COC(=O)OC1CC(C)CCC1C(C)C (stereo not drawn) [Compound 1]: 0.5

Please give Antiplasmodial activity IS (Index of Selectivity = LC50/EC50), item by item, for the list that follows.
1. CCCOC(=O)OC1CC(C)CCC1C(C)C (stereo not drawn) [Compound 3]
2. CCOC(=O)OC1CC(C)CCC1C(C)C (stereo not drawn) [Compound 2]
3. CC1CCC(C(C)C)C(O)C1 (stereo not drawn) [Menthol, 2-Isopropyl-5-methylcyclohexanol]
4. CCCCOC(=O)OC1CC(C)CCC1C(C)C (stereo not drawn) [Compound 5]

Out:
1: 0.9; 2: 3.6; 3: 0.7; 4: 3.7

---

# Tested on: L. braziliensis intracellular amastigotes (HMOM/COL/88/UA301-EGFP)
# experiment_summary: In vitro activity against L. braziliensis amastigotes in U-937 cells (flow cytometry)
# Format: cell-based, Leishmania braziliensis
# condition_summary: Leishmania braziliensis, U-937, 72 h, intracellular amastigotes of L. braziliensis, 72 h; read-out: Leishmanicidal activity EC50 (median effective concentration)
reported_property: pEC50
One number for each entry, as −log10 of the molar value.

Some entries whose results are on file:
CCCCCCOC(=O)OC1CC(C)CCC1C(C)C (stereo not drawn) [Compound 7]: 4.55
CCOC(=O)OC1CC(C)CCC1C(C)C (stereo not drawn) [Compound 2]: 4.55
COC(=O)OC1CC(C)CCC1C(C)C (stereo not drawn) [Compound 1]: 4.64

Then this compound:
In: Give the observed pEC50 of CCCCCOC(=O)OC1CC(C)CCC1C(C)C (stereo not drawn) [Compound 6] for L. braziliensis intracellular amastigotes (HMOM/COL/88/UA301-EGFP).
Out: 4.01

---

# experiment_summary: in vitro
reported_property: CC50 at 72 h

Quick request: CC50 at 72 h for each listed item, please.
1. C[C@@H]1[C@H](O)[C@@H](C)/C=C/C=C/C=C/C=C/C=C/C=C/C=C/[C@H](O[C@@H]2O[C@H](C)[C@@H](O)[C@H](N)[C@@H]2O)C[C@@H]2O[C@](O)(C[C@@H](O)C[C@@H](O)[C@H](O)CC[C@@H](O)C[C@@H](O)CC(=O)O[C@H]1C)C[C@H](O)[C@H]2C(=O)O [AMB, Amphotericin B, reference compound]
2. O=C(Cn1ccnc1[N+](=O)[O-])NCc1ccccc1 [BNZ, Benznidazole, reference compound]
3. CCCCCCOC(=O)OC1CC(C)CCC1C(C)C (stereo not shown) [Compound 7]
4. CCCOC(=O)OC1CC(C)CCC1C(C)C (stereo not shown) [Compound 3]
5. CC1CCC(C(C)C)C(OC(=O)OC(C)C)C1 (stereo not shown) [Compound 4]
6. COC(=O)OC1CC(C)CCC1C(C)C (stereo not shown) [Compound 1]
7. COc1cccc2c1C(=O)c1c(O)c3c(c(O)c1C2=O)C[C@@](O)(C(=O)CO)C[C@@H]3O[C@H]1C[C@H](N)[C@H](O)[C@H](C)O1 [DOXO, Doxorubicin, reference compound]

Out:
1. 53.9 µM
2. > 768 µM
3. 73.3 µM
4. 57 µM
5. 145 µM
6. 68.5 µM
7. 1.7 µM
